Species: Rattus norvegicus
Test: Open TG-GATES - Regimen: Single
Type: toxicity, organism-based, Sprague-Dawley
Parameters: regimen Single, gender Male, age 6 weeks
Conditions: in vivo, po, 0 mg/kg, 6 h, tissue Plasma, route gavage, dose level Control
experimental-readout: TG
Just so you know, I need the unit written after the number.

Recorded results for 5 compounds are shown here.
[
  {
    "compound": "C[C@](N)(Cc1ccc(O)c(O)c1)C(=O)O",
    "value": "43 mg/dL"
  },
  {
    "compound": "Oc1ncnc2[nH]ncc12",
    "value": "54.4 mg/dL"
  },
  {
    "compound": "CC(=N)S [THIOACETAMIDE]",
    "value": "61.8 mg/dL"
  },
  {
    "compound": "C[C@]12CCC(=O)C=C1CC[C@@H]1[C@@H]2CC[C@@]2(C)[C@H]1CC[C@]2(C)O",
    "value": "40.6 mg/dL"
  },
  {
    "compound": "O=C(N[C@H](CO)[C@H](O)c1ccc([N+](=O)[O-])cc1)C(Cl)Cl",
    "value": "72.2 mg/dL"
  }
]

[Q] Look up TG for this compound: CC(=O)Oc1cc(C(C)C)c(OCCN(C)C)cc1C
[A] 47.8 mg/dL

[Q] What about this compound? CCc1oc2ccccc2c1C(=O)c1cc(I)c(O)c(I)c1
[A] 57.6 mg/dL

[Q] What about this compound? CC(C)(S)[C@@H](N)C(=O)O
[A] 52.4 mg/dL

[Q] What about this compound? O=C(O)c1cccnc1
[A] 68.4 mg/dL

[Q] What about this compound? CC(C)C(=O)Nc1ccc([N+](=O)[O-])c(C(F)(F)F)c1 [FLUTAMIDE]
[A] 51.8 mg/dL
